- tested_system: UniProt:P56524
- Sequence (P56524 whole entry, the tested form may be a part): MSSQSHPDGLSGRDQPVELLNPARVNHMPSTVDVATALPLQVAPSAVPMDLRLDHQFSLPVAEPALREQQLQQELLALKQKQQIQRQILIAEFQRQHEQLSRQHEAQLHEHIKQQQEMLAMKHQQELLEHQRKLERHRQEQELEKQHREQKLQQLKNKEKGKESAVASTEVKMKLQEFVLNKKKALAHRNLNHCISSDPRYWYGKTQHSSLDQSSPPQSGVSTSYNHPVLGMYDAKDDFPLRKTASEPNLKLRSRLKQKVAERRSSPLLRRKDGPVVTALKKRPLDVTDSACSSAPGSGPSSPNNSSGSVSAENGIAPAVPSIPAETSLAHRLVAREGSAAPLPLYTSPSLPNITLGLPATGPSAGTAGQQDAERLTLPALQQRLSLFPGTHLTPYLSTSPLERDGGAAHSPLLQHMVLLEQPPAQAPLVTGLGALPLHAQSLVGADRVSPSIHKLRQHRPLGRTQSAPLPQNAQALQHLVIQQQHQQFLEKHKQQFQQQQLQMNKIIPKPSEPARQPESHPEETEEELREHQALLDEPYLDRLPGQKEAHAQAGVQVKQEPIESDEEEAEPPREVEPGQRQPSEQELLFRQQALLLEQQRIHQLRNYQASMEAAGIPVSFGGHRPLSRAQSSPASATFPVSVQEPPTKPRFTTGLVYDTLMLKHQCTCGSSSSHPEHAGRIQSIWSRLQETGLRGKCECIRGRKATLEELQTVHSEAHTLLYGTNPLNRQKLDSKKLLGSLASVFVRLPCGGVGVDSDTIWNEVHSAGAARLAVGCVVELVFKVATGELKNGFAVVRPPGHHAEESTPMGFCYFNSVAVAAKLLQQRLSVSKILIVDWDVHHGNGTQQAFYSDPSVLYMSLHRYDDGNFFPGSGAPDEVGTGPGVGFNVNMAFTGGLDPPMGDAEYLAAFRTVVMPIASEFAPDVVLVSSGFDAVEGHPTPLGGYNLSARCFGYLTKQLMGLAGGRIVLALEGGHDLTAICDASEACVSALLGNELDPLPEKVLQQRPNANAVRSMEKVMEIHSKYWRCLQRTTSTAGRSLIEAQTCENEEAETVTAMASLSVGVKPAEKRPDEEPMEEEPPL
- method_summary: Inhibition of human recombinant C-terminal GST-tagged HDAC4 (101 to 1084 residues) expressed in baculovirus infected Sf9 insect cells after 1 hr by HDAC-Glo1/2 luminescent assay
property_name: pIC50
Give only the number. pIC50 is defined as minus log10 of concentration in molar units.

Q. Give the reported value of pIC50 for this record: C/C=C1\NC(=O)[C@H]2CSSCC/C=C/[C@H](CC(=O)N[C@H](C(C)C)C(=O)N2)OC(=O)[C@H](C(C)C)NC1=O
A. 5.35
